Origin of measurements: patent US20180235993A1

assay: Cytotoxicity assay (sulforhodamine B, CC50), MDBK; assay type: cell-based; settings: cattle; MDBK cells, 4 days incubation
assay metric: CC50 at 4 days (µM)
// note: answer is a bare numeric in µM

// CC50 at 4 days lookup, compound = NC(=O)c1ncn([C@@H]2O[C@H](CO)[C@@H](O)[C@H]2O)n1 [Ribavirin, reference compound] , result: 5

---

Experiment: Bioavailability assay in Cynomolgus monkeys
Type: in vivo, Cynomolgus monkey
Conditions: cynomolgus monkey, blood; Cynomolgus monkeys, IV 10 mg/kg
Description: Within 1 week prior to the study initiation, the cynomolgus monkey was surgically implanted with a chronic venous catheter and subcutaneous venous access port (VAP) to facilitate blood collection and underwent a physical examination including hematology and serum chemistry evaluations and the body weight was recorded. […] Each dosing syringe was weighed before dosing to gravimetrically determine the quantity of formulation administered. […]
assay metric: Cmax (ng/mL)
// note: answer is a bare numeric in ng/mL

// Cmax lookup, compound = CC1(O)[C@@H](O)[C@@H](CO)O[C@H]1n1cnc2c(=O)[nH]c(N)nc21 (stereo partly shown) , result: 6950
